EXPERIMENT_DESCRIPTION: physchem
SETTINGS: Solubility in ethanol (EtOH)
Where a SMILES comes first, the peptide text is derived from it. [ ]: non-standard residue; d: D form. The star is where a group is joined. Sta = CC(C)C[C@H](N)[C@@H](O)CC(=O)O; Isovaleryl = CC(C)CC(=O)*
METRIC: solubility (µg/mL)
Reply with just the number (in µg/mL).

What value of measured solubility is listed for CC(C)CC(=O)N[C@H](C(=O)N[C@H](C(=O)N[C@@H](CC(C)C)[C@@H](O)CC(=O)N[C@@H](C)C(=O)N[C@@H](CC(C)C)[C@@H](O)CC(=O)O)C(C)C)C(C)C [PEPSTATIN] (Isovaleryl-VV[Sta]A[Sta]-OH) ?
1000
